conditions: buffer; pH 7.4; 200.0 µM
Each entry below carries its reported solubility kinetic.

Please review the entries below; each comes with its answer.
compound: O=C(O)c1ccc(Cl)c(S(=O)(=O)Nc2ccc(S(=O)(=O)N3CCCC3)cc2)c1
solubility kinetic: > 66.7 µg/mL

compound: O=C(c1ccc2[nH]c(=O)c(=O)[nH]c2c1)N1CCc2ccccc2C1
solubility kinetic: > 48.2 µg/mL

compound: Cc1nc(NC(=O)c2ccco2)sc1C(=O)O
solubility kinetic: > 37.8 µg/mL

compound: COc1cc(NC(=S)N2CCN(C)CC2)cc(OC)c1
solubility kinetic: > 44.3 µg/mL

compound: COc1ccc(NC(=O)CCC(=O)N/N=C/c2cccnc2)cc1
solubility kinetic: > 49 µg/mL

compound: COc1ccc(C(=O)NCCNC(=O)c2cnccn2)cc1OC
solubility kinetic: > 49.6 µg/mL

compound: CC(C)N1C(=O)N(c2cccc(Cl)c2)C(C)(O)CC1(C)C (centres undefined)
solubility kinetic: > 46.6 µg/mL

compound: COC(=O)c1cc(N=C(N)N=C(N)N)cc(C(=O)OC)c1
solubility kinetic: > 44 µg/mL

compound: O=C(NCCC1=CCCCC1)C(=O)NCCc1ccc(Cl)cc1
solubility kinetic: < 0.4 µg/mL

compound: CC1=CC(C)(C)N(C(=O)CN2C(=O)CCC2=O)c2ccccc21
solubility kinetic: > 46.9 µg/mL

Form field: reported solubility kinetic of CCOc1ccc2c(c1)c1nc3ccccc3nc1n2C < 0.2 µg/mL

Form field: reported solubility kinetic of CCNc1nc(NC(C)C)nc(N(C#N)C(C)C(=O)N(CC)CC)n1 (centres undefined) > 52.3 µg/mL

Form field: reported solubility kinetic of COC(=O)c1ccccc1NC(=O)Cn1cnc([N+](=O)[O-])c1 > 45.6 µg/mL

Form field: reported solubility kinetic of Cc1c([N+](=O)[O-])c([N+](=O)[O-])nn1CC(=O)N1CCOCC1 > 44.9 µg/mL

----------
conditions: buffer; pH 7.4; 200.0 µM
Each entry below carries its reported solubility kinetic.

molecule: COc1ccc(OCC(N)=O)cc1
solubility kinetic: > 27.2 µg/mL
//
molecule: O=C(COc1ccccc1)NCC(=O)Nc1ccncc1
solubility kinetic: > 42.8 µg/mL
//
molecule: CC1CCCC(C)N1CC(O)COCc1ccccc1.Cl (stereo not given)
solubility kinetic: > 47.1 µg/mL
//
molecule: COc1ccc(NC(=O)CS(=O)c2ccc(F)cc2)cc1 (stereo not given)
solubility kinetic: > 46.1 µg/mL

Form field: reported solubility kinetic of CC(NC(=O)CSc1nc2ccccc2n1C)c1ccccc1 (stereo not given) > 48.8 µg/mL

Form field: reported solubility kinetic of CCN(CC(=O)NCc1ccncc1)S(=O)(=O)c1ccccc1 > 50 µg/mL

Form field: reported solubility kinetic of COc1ccc(CNC(=O)c2[nH]c(C)c(C(C)=O)c2C)cc1 > 45.1 µg/mL

Form field: reported solubility kinetic of Cc1nsc(N)c1C(=O)O > 23.7 µg/mL

Form field: reported solubility kinetic of O=C(NN1CCOCC1)c1ccccc1 > 30.9 µg/mL

Form field: reported solubility kinetic of COc1ccc(C(=O)CSc2nnc3ccccn23)cc1OC > 49.4 µg/mL

----------
settings: buffer; pH 7.4; 200.0 µM
Each entry below carries its reported solubility kinetic.

molecule: O=C(NCC1CCCO1)c1ccc(COc2ccccc2)o1 (stereo unspecified)
solubility kinetic: > 45.2 µg/mL

Form field: reported solubility kinetic of Cn1ccnc1SCC(=O)NCC(=O)Nc1ccc(F)c(F)c1F > 53.7 µg/mL

Form field: reported solubility kinetic of O=C(CN1CCOCC1)NNC(=O)c1ccc(Cl)cc1 > 44.7 µg/mL
